Test system: antibodies in sera from SARS patients (sera 1a, 1b, 2, 6, 37, 62, London, SARS-yellow, SARS-green)
Assay type: binding, human
Set-up: unit not given here
Listed sequences paired with reported Binding of serum 37 to linear peptides of protein M of SARS-CoV Urbani
Number only, please.

Request: Any idea what its Binding of serum 37 to linear peptides of protein M of SARS-CoV Urbani is? The sequence is `YRINWVTGGIAIAMA`
Response: 0.8

Request: Any idea what its Binding of serum 37 to linear peptides of protein M of SARS-CoV Urbani is? The sequence is `PLRGTIVTRPLMESE`
Response: 0.8

Request: Any idea what its Binding of serum 37 to linear peptides of protein M of SARS-CoV Urbani is? The sequence is `FLFLAWIMLLQFAYS`
Response: 0.4

Request: Any idea what its Binding of serum 37 to linear peptides of protein M of SARS-CoV Urbani is? The sequence is `RINWVTGGIAIAMAC`
Response: 0.5

Request: Any idea what its Binding of serum 37 to linear peptides of protein M of SARS-CoV Urbani is? The sequence is `FLWLLWPVTLACFVL`
Response: 0.6

Request: Any idea what its Binding of serum 37 to linear peptides of protein M of SARS-CoV Urbani is? The sequence is `QRVGTDSGFAAYNRY`
Response: 0.7

Request: Any idea what its Binding of serum 37 to linear peptides of protein M of SARS-CoV Urbani is? The sequence is `AVYRINWVTGGIAIA`
Response: 0.8

Request: Any idea what its Binding of serum 37 to linear peptides of protein M of SARS-CoV Urbani is? The sequence is `LFARTRSMWSFNPET`
Response: 0.5

Request: Any idea what its Binding of serum 37 to linear peptides of protein M of SARS-CoV Urbani is? The sequence is `MWSFNPETNILLNVP`
Response: 0.9

Request: Any idea what its Binding of serum 37 to linear peptides of protein M of SARS-CoV Urbani is? The sequence is `LSYFVASFRLFARTR`
Response: 0.6

Request: Any idea what its Binding of serum 37 to linear peptides of protein M of SARS-CoV Urbani is? The sequence is `YIIKLVFLWLLWPVT`
Response: 0.7

Request: Any idea what its Binding of serum 37 to linear peptides of protein M of SARS-CoV Urbani is? The sequence is `LVIGAVIIRGHLRMA`
Response: 0.4

Request: Any idea what its Binding of serum 37 to linear peptides of protein M of SARS-CoV Urbani is? The sequence is `MACIVGLMWLSYFVA`
Response: 0.4

Request: Any idea what its Binding of serum 37 to linear peptides of protein M of SARS-CoV Urbani is? The sequence is `ELKQLLEQWNLVIGF`
Response: 0.6

Request: Any idea what its Binding of serum 37 to linear peptides of protein M of SARS-CoV Urbani is? The sequence is `AWIMLLQFAYSNRNR`
Response: 0.4

Request: Any idea what its Binding of serum 37 to linear peptides of protein M of SARS-CoV Urbani is? The sequence is `VGLMWLSYFVASFRL`
Response: 0.4

Request: Any idea what its Binding of serum 37 to linear peptides of protein M of SARS-CoV Urbani is? The sequence is `CIVGLMWLSYFVASF`
Response: 0.4

* * *

System: antibodies in sera from SARS patients (sera 1a, 1b, 2, 6, 37, 62, London, SARS-yellow, SARS-green)
Format: binding, human
Listed sequences paired with reported Binding of serum London to linear peptides of protein X5 of SARS-CoV Urbani
Number only, please.

Request: Any idea what its Binding of serum London to linear peptides of protein X5 of SARS-CoV Urbani is? The sequence is `CLKILVRYNTRGNTY`
Response: 0.7

Request: Any idea what its Binding of serum London to linear peptides of protein X5 of SARS-CoV Urbani is? The sequence is `FHRWHTMVQTCTPNV`
Response: 0.7

Request: Any idea what its Binding of serum London to linear peptides of protein X5 of SARS-CoV Urbani is? The sequence is `KILVRYNTRGNTYST`
Response: 0.7

Request: Any idea what its Binding of serum London to linear peptides of protein X5 of SARS-CoV Urbani is? The sequence is `GALIARCWYLHEGHQ`
Response: 0.6

* * *

Listed sequences paired with reported Binding of serum 62 to looped/cyclic peptides of protein X4 of SARS-CoV Urbani
System: antibodies in sera from SARS patients (sera 1a, 1b, 2, 6, 37, 62, London, SARS-yellow, SARS-green)
Format: binding, human

Study these solved cases before continuing.
Request: Any idea what its Binding of serum 62 to looped/cyclic peptides of protein X4 of SARS-CoV Urbani is? The sequence is `KIILFLTLIVFTSCE`
Response: 0.9

Request: Any idea what its Binding of serum 62 to looped/cyclic peptides of protein X4 of SARS-CoV Urbani is? The sequence is `LIVAALVFLILCFTI`
Response: 0.6

Request: Any idea what its Binding of serum 62 to looped/cyclic peptides of protein X4 of SARS-CoV Urbani is? The sequence is `FTSCELYHYQECVRG`
Response: 0.7

Proceed to the following item.
Request: Any idea what its Binding of serum 62 to looped/cyclic peptides of protein X4 of SARS-CoV Urbani is? The sequence is `ALTCTSTHFAFACAD`
Response: 0.9

* * *

Test system: antibodies in sera from SARS patients (sera 1a, 1b, 2, 6, 37, 62, London, SARS-yellow, SARS-green)
Format: binding, human
Listed sequences paired with reported Binding of serum SARS-yellow to looped/cyclic peptides of protein M of SARS-CoV Urbani
Number only, please.

Study these solved cases before continuing.
Request: Any idea what its Binding of serum SARS-yellow to looped/cyclic peptides of protein M of SARS-CoV Urbani is? The sequence is `QRVGTDSGFAAYNRY`
Response: 0.6

Request: Any idea what its Binding of serum SARS-yellow to looped/cyclic peptides of protein M of SARS-CoV Urbani is? The sequence is `IKDLPKEITVATSRT`
Response: 0.9

Request: Any idea what its Binding of serum SARS-yellow to looped/cyclic peptides of protein M of SARS-CoV Urbani is? The sequence is `TSRTLSYYKLGASQR`
Response: 0.9

Request: Any idea what its Binding of serum SARS-yellow to looped/cyclic peptides of protein M of SARS-CoV Urbani is? The sequence is `FLFLAWIMLLQFAYS`
Response: 0.4

Request: Any idea what its Binding of serum SARS-yellow to looped/cyclic peptides of protein M of SARS-CoV Urbani is? The sequence is `YRIGNYKLNTDHAGS`
Response: 0.6

---
Request: Any idea what its Binding of serum SARS-yellow to looped/cyclic peptides of protein M of SARS-CoV Urbani is? The sequence is `CIVGLMWLSYFVASF`
Response: 0.5

Request: Any idea what its Binding of serum SARS-yellow to looped/cyclic peptides of protein M of SARS-CoV Urbani is? The sequence is `ELKQLLEQWNLVIGF`
Response: 0.9

Request: Any idea what its Binding of serum SARS-yellow to looped/cyclic peptides of protein M of SARS-CoV Urbani is? The sequence is `IVGLMWLSYFVASFR`
Response: 0.6

Request: Any idea what its Binding of serum SARS-yellow to looped/cyclic peptides of protein M of SARS-CoV Urbani is? The sequence is `AYNRYRIGNYKLNTD`
Response: 0.6

* * *

Tested on: antibodies in sera from SARS patients (sera 1a, 1b, 2, 6, 37, 62, London, SARS-yellow, SARS-green)
Format: binding, human
Threshold 0.4. Binding of serum 1a to looped/cyclic peptides of protein X1 of SARS-CoV Urbani below it: T. Binding of serum 1a to looped/cyclic peptides of protein X1 of SARS-CoV Urbani at it or above: F.

Example entries and their recorded answers appear below.
Request: Lab note: confirm whether the reported Binding of serum 1a to looped/cyclic peptides of protein X1 of SARS-CoV Urbani for this sequence is below 0.4, equality not counting. sequence: `TIVVTEGDGISTPKL`
Response: F

Request: Lab note: confirm whether the reported Binding of serum 1a to looped/cyclic peptides of protein X1 of SARS-CoV Urbani for this sequence is below 0.4, equality not counting. sequence: `STQITTDTGIENATF`
Response: F

Request: Lab note: confirm whether the reported Binding of serum 1a to looped/cyclic peptides of protein X1 of SARS-CoV Urbani for this sequence is below 0.4, equality not counting. sequence: `YFTEVYYQLESTQIT`
Response: F

---
Request: Lab note: confirm whether the reported Binding of serum 1a to looped/cyclic peptides of protein X1 of SARS-CoV Urbani for this sequence is below 0.4, equality not counting. sequence: `VTEGDGISTPKLKED`
Response: T

Request: Lab note: confirm whether the reported Binding of serum 1a to looped/cyclic peptides of protein X1 of SARS-CoV Urbani for this sequence is below 0.4, equality not counting. sequence: `NATFFIFNKLVKDPP`
Response: F
